experiment: Pharmacokinetic evaluation in beagles; format: in vivo, beagle; settings: male, beagle, dog, plasma; beagles (fed), intravenous injection 0.5 mg/kg; read-out: Apparent volume of distribution
Where a name gives a salt, the structure may show the parent alone.
readout-type: Vd (L/kg)
Enter your answer as a number in L/kg; do not include the unit.

input: Fill in reported Vd for this entry: O=C1CCC(c2noc3ccc4c(NC(=O)CN5CCN(C[C@H]6CC[C@H](n7cc(NC(=O)c8coc(-c9ccnc(NCC%10CC%10)c9)n8)c(C(F)F)n7)CC6)CC5)cccc4c23)C(=O)N1 (stereo partly shown) [Hydrochloride of WX014]
output: 5.83

* * *

Target: IRAK4 (Homo sapiens, UniProt Q9NWZ3)
Construct: expressed in transfected cells; host or cells: K562 IRAK4-HiBiT cells
Sequence (Q9NWZ3 1-460): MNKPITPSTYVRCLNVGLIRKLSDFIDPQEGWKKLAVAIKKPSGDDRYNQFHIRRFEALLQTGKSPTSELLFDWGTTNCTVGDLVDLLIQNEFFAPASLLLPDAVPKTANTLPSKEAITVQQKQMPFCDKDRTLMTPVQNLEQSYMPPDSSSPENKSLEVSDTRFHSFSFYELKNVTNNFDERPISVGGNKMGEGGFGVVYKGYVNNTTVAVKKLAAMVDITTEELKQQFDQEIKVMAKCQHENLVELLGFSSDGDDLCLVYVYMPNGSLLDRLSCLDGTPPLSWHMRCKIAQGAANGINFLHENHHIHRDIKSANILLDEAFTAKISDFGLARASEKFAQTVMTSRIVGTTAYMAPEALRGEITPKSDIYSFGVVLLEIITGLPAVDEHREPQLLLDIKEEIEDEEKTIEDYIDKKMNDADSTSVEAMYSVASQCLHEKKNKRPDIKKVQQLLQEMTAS
Experiment: Target protein degradation in K562 IRAK4-HiBiT cells (Nano-Glo HiBiT)
Type: cell-based
Conditions: 16 to 18 hours, read-out: Maximum degradation rate
Counter-ions that a name gives are not always drawn.
readout-type: Dmax
Kindly format the answer as number then unit.

>>> value_reported("CC(C)(O)c1cc2nc([C@H]3CC[C@H](CN4CCN(CC(=O)Nc5cccc6c(C7CCC(=O)NC7=O)noc56)CC4)CC3)sc2cc1NC(=O)c1cccc(C(F)(F)F)n1 (stereo partly shown) [Formate of WX029]")
"112%"

input: Report value: Dmax, system: IRAK4 (Homo sapiens, UniProt Q9NWZ3), molecule: O=C1CCC(c2coc3ccc(NC(=O)CN4CCN(C[C@H]5CC[C@H](n6cc(NC(=O)c7coc(-c8ccnc(NCC9CC9)c8)n7)c(C(F)F)n6)CC5)CC4)cc23)C(=O)N1 (stereo partly shown) [Hydrochloride of WX001]
output: 54.3%

input: Report value: Dmax, system: IRAK4 (Homo sapiens, UniProt Q9NWZ3), molecule: CN(CCCOCCCc1cccc2c1ccc1onc(C3CCC(=O)NC3=O)c12)CC1CCC(n2cc(NC(=O)c3coc(-c4ccnc(NCC5CC5)c4)n3)c(C(F)F)n2)CC1 (stereo not shown) [Hydrochloride of WX013]
output: 101%

input: Report value: Dmax, system: IRAK4 (Homo sapiens, UniProt Q9NWZ3), molecule: O=C1CCC(c2coc3cc(NC(=O)CN4CCN(C[C@H]5CC[C@H](N6CC(NC(=O)c7coc(-c8ccnc(NCC9CC9)c8)n7)C(C(F)F)N6)CC5)CC4)ccc23)C(=O)N1 (stereo partly shown) [Hydrochloride of WX002]
output: 100%

input: Report value: Dmax, system: IRAK4 (Homo sapiens, UniProt Q9NWZ3), molecule: O=C1CCC(c2noc3c(NC(=O)C(F)(F)C4CCN(C[C@H]5CC[C@H](n6cc(NC(=O)c7coc(-c8ccnc(NCC9CC9)c8)n7)c(C(F)F)n6)CC5)CC4)cccc23)C(=O)N1 (stereo partly shown) [Formate of WX024]
output: 117%

input: Report value: Dmax, system: IRAK4 (Homo sapiens, UniProt Q9NWZ3), molecule: CN(CCCOCCCc1cccc2c1ccc1occ(C3CCC(=O)NC3=O)c12)CC1CCC(n2cc(NC(=O)c3coc(-c4ccnc(NCC5CC5)c4)n3)c(C(F)F)n2)CC1 (stereo not shown) [Trifluoroacetate of WX010]
output: 81.7%

input: Report value: Dmax, system: IRAK4 (Homo sapiens, UniProt Q9NWZ3), molecule: O=C1CCC(c2coc3ccc4c(NC(=O)CN5CCN(C[C@H]6CC[C@H](n7cc(NC(=O)c8coc(-c9ccnc(NCC%10CC%10)c9)n8)c(C(F)F)n7)CC6)CC5)cccc4c23)C(=O)N1 (stereo partly shown) [Trifluoroacetate of WX011]
output: 105%

* * *

system: OCI-LY10; test: Antiproliferative effect in lymphoma cell line OCI-LY10 (CellTiter-Glo); assay type: cell-based, human; settings: OCI-LY10, 5 days
Counter-ions that a name gives are not always drawn.
Reported Maximum inhibition rate values for the following compounds.
Enter your answer as a number in %; do not include the unit.

>>> value_reported("O=C1CCC(c2noc3c(NC(=O)CN4CCN(C[C@H]5CC[C@H](n6cc(NC(=O)c7coc(-c8ccnc(NCC9CC9)c8)n7)c(C(F)F)n6)CC5)CC4)cccc23)C(=O)N1 (stereo partly shown) [Hydrochloride of WX028]")
99.01

input: Fill in reported Maximum inhibition rate for this entry: O=C1CCC(c2coc3cc(NC(=O)CN4CCN(C[C@H]5CC[C@H](N6CC(NC(=O)c7coc(-c8ccnc(NCC9CC9)c8)n7)C(C(F)F)N6)CC5)CC4)ccc23)C(=O)N1 (stereo partly shown) [Hydrochloride of WX002]
output: 63.27

* * *

Reported Dmax values for the following compounds.
biological target: IKZF1 (Homo sapiens, UniProt Q13422+Q96SW2); construct: host or cells: MM.1S cells; assay: In Cell Western of IKZF1 protein expression level in MM.1S cells; type: cell-based; conditions: MM1.S; IKZF1, MM.1S cells, 24 hours; read-out: Maximum degradation rate Dmax
Sequence (Q13422 whole entry): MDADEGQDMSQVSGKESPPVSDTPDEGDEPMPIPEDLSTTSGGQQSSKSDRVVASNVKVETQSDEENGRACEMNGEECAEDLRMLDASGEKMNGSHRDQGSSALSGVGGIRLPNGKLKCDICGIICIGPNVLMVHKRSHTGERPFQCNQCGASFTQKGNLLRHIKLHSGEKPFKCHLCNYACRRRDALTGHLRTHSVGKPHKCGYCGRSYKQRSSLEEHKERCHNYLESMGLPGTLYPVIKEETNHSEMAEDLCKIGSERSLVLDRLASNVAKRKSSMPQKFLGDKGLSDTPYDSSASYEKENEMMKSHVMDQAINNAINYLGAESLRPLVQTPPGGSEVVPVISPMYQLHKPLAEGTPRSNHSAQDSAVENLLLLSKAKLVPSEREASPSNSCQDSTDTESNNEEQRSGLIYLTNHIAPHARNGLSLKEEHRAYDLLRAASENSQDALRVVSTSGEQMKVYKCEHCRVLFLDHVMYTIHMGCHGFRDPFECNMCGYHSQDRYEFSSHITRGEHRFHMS
Sequence (Q96SW2 whole entry): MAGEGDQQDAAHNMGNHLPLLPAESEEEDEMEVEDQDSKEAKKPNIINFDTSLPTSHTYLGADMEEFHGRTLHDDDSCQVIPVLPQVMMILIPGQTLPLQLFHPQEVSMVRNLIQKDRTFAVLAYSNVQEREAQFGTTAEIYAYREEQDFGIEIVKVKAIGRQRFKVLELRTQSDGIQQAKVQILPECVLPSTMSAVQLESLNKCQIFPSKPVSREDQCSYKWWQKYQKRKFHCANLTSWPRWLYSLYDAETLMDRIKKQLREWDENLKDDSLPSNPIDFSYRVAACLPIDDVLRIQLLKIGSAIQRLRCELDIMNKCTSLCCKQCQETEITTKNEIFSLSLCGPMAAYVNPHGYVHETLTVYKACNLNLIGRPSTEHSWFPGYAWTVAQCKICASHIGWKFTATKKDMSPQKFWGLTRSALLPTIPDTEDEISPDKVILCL
Sequence (Q16531 whole entry partner): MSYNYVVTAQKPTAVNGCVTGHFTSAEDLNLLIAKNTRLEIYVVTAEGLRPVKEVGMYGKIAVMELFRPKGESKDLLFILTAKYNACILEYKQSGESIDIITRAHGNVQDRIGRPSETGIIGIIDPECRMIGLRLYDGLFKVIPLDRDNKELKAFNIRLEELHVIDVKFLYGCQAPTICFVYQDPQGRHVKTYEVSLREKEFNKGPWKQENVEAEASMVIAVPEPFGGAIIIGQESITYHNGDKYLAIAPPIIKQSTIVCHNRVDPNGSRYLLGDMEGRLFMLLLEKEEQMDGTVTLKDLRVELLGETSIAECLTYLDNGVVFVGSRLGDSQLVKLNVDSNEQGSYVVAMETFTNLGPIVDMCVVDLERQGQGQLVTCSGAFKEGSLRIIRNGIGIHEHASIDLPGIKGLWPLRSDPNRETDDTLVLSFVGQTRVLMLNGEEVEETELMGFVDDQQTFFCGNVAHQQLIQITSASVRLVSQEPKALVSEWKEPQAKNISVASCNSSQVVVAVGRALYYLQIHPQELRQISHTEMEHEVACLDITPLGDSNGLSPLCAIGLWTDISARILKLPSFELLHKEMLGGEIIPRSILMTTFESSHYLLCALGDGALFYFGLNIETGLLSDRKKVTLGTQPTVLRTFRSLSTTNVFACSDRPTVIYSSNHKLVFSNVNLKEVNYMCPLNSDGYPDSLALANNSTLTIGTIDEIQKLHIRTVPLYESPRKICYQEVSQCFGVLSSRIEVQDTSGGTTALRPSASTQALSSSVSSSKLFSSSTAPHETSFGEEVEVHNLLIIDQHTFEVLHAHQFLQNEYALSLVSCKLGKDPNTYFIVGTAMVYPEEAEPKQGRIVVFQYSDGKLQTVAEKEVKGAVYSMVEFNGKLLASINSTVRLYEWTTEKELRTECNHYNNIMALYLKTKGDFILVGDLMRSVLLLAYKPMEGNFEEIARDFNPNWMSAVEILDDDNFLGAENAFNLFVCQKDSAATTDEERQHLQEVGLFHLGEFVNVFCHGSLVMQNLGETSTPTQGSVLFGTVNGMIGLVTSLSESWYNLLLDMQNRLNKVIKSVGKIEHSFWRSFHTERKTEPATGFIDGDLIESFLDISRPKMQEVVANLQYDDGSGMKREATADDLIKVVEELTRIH
Counter-ions that a name gives are not always drawn.
Enter your answer as a number in %; do not include the unit.

>>> value_reported("CN(CCCOCCCc1ccc2c(ccc3onc(C4CCC(=O)NC4=O)c32)c1)C[C@H]1CC[C@H](n2cc(NC(=O)c3coc(-c4ccnc(NCC5CC5)c4)n3)c(C(F)F)n2)CC1 (stereo partly drawn) [Hydrochloride of WX016]")
81.6
>>> value_reported("O=C1CCC(c2noc3ccc4cc(NC(=O)CN5CCN(CC6CCC(n7cc(NC(=O)c8coc(-c9ccnc(NCC%10CC%10)c9)n8)c(C(F)F)n7)CC6)CC5)ccc4c23)C(=O)N1 (stereo not drawn) [Hydrochloride of WX015]")
81.8

Turning now to a further compound:
input: Fill in reported Dmax for this entry: O=C1CCC(c2noc3c(NC(=O)CN4CCN(C[C@H]5CC[C@H](n6cc(NC(=O)c7coc(-c8ccnc(NCC9CC9)c8)n7)c(C(F)F)n6)CC5)CC4)cccc23)C(=O)N1 (stereo partly drawn) [Hydrochloride of WX028]
output: 49.7

* * *

target: IKZF1 (Homo sapiens, UniProt Q13422+Q96SW2); construct: host or cells: MM.1S cells; assay: In Cell Western of IKZF1 protein expression level in MM.1S cells; format: cell-based; conditions: IKZF1, MM.1S cells, 24 hours
Counter-ions that a name gives are not always drawn.
Reported DC50 values for the following compounds.
Enter your answer as a number in nM; do not include the unit.

Guide cases for DC50, answers given:
>>> value_reported("CC(C)(O)c1cc2nc([C@H]3CC[C@H](CN4CC5(CC(CCNc6ccc7c(ccc8onc(C9CCC(=O)NC9=O)c87)c6)C5)C4)CC3)sc2cc1NC(=O)c1cccc(C(F)(F)F)n1 (stereo partly shown)")
2.66
>>> value_reported("O=C1CCC(c2noc3c(NC(=O)CN4CCN(C[C@H]5CC[C@H](n6cc(NC(=O)c7coc(-c8ccnc(NCC9CC9)c8)n7)c(C(F)F)n6)CC5)CC4)cccc23)C(=O)N1 (stereo partly shown) [Hydrochloride of WX028]")
26.7
>>> value_reported("O=C1CCC(c2noc3c(NC(=O)C(F)(F)C4CCN(C[C@H]5CC[C@H](n6cc(NC(=O)c7coc(-c8ccnc(NCC9CC9)c8)n7)c(C(F)F)n6)CC5)CC4)cccc23)C(=O)N1 (stereo partly shown) [Formate of WX024]")
35.2

Turning now to a further compound:
input: Fill in reported DC50 for this entry: O=C1CCC(c2noc3cc(NC(=O)CN4CCN(C[C@H]5CC[C@H](n6cc(NC(=O)c7coc(-c8ccnc(NCC9CC9)c8)n7)c(C(F)F)n6)CC5)CC4)ccc23)C(=O)N1 (stereo partly shown) [Hydrochloride of WX025]
output: 14.4

* * *

Biological target: IRAK4 (Homo sapiens)
Construct: expressed in transfected cells; host or cells: K562 IRAK4-HiBiT cells
Experiment: Target protein degradation in K562 IRAK4-HiBiT cells (Nano-Glo HiBiT)
Format: cell-based
Conditions: 16 to 18 hours
Procedure: Experimental objective: The experiment aims to evaluate the degradation effect of the test compounds on the target protein IRAK4 in K562 IRAK4-HiBiT cells. • Cells: K562 IRAK4-HiBiT cells • Culture medium: RPMI 1640+10% fetal bovine serum+2 mM glutamine+1 mM sodium pyruvate+penicillin/streptomycin. • Positive control: 1000 nM; negative control: 0.1% DMSO. • (1). The powder of the compound to be tested was dissolved in DMSO to a storage concentration of 10 mM. […]
Counter-ions that a name gives are not always drawn.
Reported DC50 values for the following compounds.
Enter your answer as a number in nM; do not include the unit.

>>> value_reported("O=C1CCC(c2noc3ccc4c(NC(=O)C(F)(F)C5CCN(CC6CCC(n7cc(NC(=O)c8coc(-c9ccnc(NCC%10CC%10)c9)n8)c(C(F)F)n7)CC6)CC5)cccc4c23)C(=O)N1 (centres unmarked) [Hydrochloride of WX018]")
7.91
>>> value_reported("O=C1CCC(c2noc3c(NC(=O)C(F)(F)C4CCN(C[C@H]5CC[C@H](n6cc(NC(=O)c7coc(-c8ccnc(NCC9CC9)c8)n7)c(C(F)F)n6)CC5)CC4)cccc23)C(=O)N1 (some centres unmarked) [Formate of WX024]")
1.75
>>> value_reported("CC(C)(O)c1cc2nc([C@H]3CC[C@H](CN4CCN(CC(=O)Nc5ccc6c(ccc7onc(C8CCC(=O)NC8=O)c76)c5)CC4)CC3)sc2cc1NC(=O)c1cccc(C(F)(F)F)n1 (some centres unmarked) [Formate of WX020]")
29.9
>>> value_reported("CN(CCCOCCCc1ccc2c(ccc3onc(C4CCC(=O)NC4=O)c32)c1)C[C@H]1CC[C@H](n2cc(NC(=O)c3coc(-c4ccnc(NCC5CC5)c4)n3)c(C(F)F)n2)CC1 (some centres unmarked) [Hydrochloride of WX016]")
70.7

Turning now to a further compound:
input: Fill in reported DC50 for this entry: CN(CCCOCCCc1cccc2c1ccc1occ(C3CCC(=O)NC3=O)c12)CC1CCC(n2cc(NC(=O)c3coc(-c4ccnc(NCC5CC5)c4)n3)c(C(F)F)n2)CC1 (centres unmarked) [Trifluoroacetate of WX010]
output: 50.2

This collection of values is drawn from patent US20240400547A1.
